Would you kindly list EC50 Value (µg/mL), in vitro toxin A neutralization for each of these binders?
# TARGET_UNDER_TEST: Clostridium difficile toxin A (whole toxin A) (Clostridium difficile, UniProt P16154 1-2710)
# METHOD_NOTES: cell-based or functional assay
Give bare numbers, in µg/mL.

Consider the following illustrative entries.
CAN20G2 (antibody, V domains shown) VH: QIQLVQSGPEVKKPGETVKISCKASGYTFTNQGMNWVKQAPGKGLKWMGWINTNTGEPTYTEEFKGRFAFSLETSASTAYLQINNLKNEDTATYFCYVNYDYYTMDFWGQGTSVTVSS VL: QVVLTQSPAIMSASLGDRVTMTCTASSSVISTYLHWYQQKPGSSPKLWIYSTSTLASGVPPRFSGSGSGTSYSLTISSMEAEDAATYYCLQYHRSPRTFGGGTKLEIK ... 0.0101
CAN20G5 (antibody, V domains shown) VH: QIQLVQSGPELKKPGETVKISCKASGYSFTNSGMNWVKEAPGKGLKWMGWINTNTGEPTYAEEFMGRFAFSLETSASTAYLQINNLKNEDTATYFCYVNYDYYTIDYWGQGTSVTVSS VL: QIVLTQSPAIMSASLGERVTMTCTASSSVYSTYLHWYQQKPGSSPKLWIYSTSNLASGVPARFSGSGSGTSYSLTISSMEAEDAATYYCHQYHRSPRTFGGGTKLEIK ... 0.13
CAN20G1 (antibody, V domains shown) VH: QIQLVQSGPELKKPGETVKISCKASGYTFTNDGMNWVKQAPGKGLKWMGWINTNTGEPTYVEEFKGRFAFSLETSASTAYLQINNLKNEDTATYFCYVNYDYYTMDCWGQGTSVTVSS VL: QVVLTQSPAIMSASLGERVTMTCTASSSVISSYLHWYQQKPGSSPKLWIYSTSTLASGVPARFSGSGSGTSYSLTISSMEAEDAATYYCLQYHRSPRTFGGGTKLEIK ... 0.17

Please examine the following record next.
EC50 Value (µg/mL), in vitro toxin A neutralization reported for this binder CAN20G8 (antibody, V domains shown) VH: QIQLVQSGPELKKPGETVKISCKASGYAFTNDGMNWVKQAPGKGLKWMGWINTNTGEPTYAEEFKGRFAFSLETSASTAYLQINNLKNEDTATYFCYVNYDYYTMDCWGQGTSVTVSS VL: QVVLTQSPAIMSASLGERVTMTCTASSSVISSYLHWYQQKPGSSPKLWIYSTSILASGVPARFSGSGSGTSYSLTISSMEAEDAATYYCLQYHRSPRTFGGGTKLEIK : 0.137
